Sourced from the supplement of paper PMC8728848

Target: Neu5Ac(a2-8)Neu5Ac(a2-8)Neu5Ac(a2-3)[Gal(b1-3)GalNAc(b1-4)]Gal(b1-4)Glc
Experiment: glycan array binding signal (z-score within array); higher = stronger binding
Conditions: glycan notation: IUPAC condensed, linker removed
The sample as a whole holds a higher share of the strongest signals than the screen did.
# glycan array binding signal (z-score) values compiled below

glycan array binding signal (z-score) reported for this binder HHA (Hippeastrum hybrid) (protein) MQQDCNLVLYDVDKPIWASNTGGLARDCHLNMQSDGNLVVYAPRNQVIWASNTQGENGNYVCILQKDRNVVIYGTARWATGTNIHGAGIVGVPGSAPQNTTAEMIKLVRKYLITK : -0.177

Item: CLEC5A (Homo sapiens), Q9NY25 (protein) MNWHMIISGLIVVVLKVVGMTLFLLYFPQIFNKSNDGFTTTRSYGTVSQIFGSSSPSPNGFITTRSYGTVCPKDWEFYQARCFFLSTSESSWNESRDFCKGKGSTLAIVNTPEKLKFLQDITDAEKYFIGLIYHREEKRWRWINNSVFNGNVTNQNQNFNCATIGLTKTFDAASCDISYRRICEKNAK | glycan array binding signal (z-score): -0.191

For this binder ( LFA (Limax flavus) (protein) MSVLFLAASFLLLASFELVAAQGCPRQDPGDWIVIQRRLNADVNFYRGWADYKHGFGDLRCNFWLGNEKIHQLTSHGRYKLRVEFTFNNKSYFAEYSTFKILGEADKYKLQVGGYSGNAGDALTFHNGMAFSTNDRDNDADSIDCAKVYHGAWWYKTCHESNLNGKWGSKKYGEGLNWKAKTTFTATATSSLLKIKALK ), measured glycan array binding signal (z-score) is -0.353
